- target: T1, EsCas13d, nuclease-dead (Eubacterium siraeum, UniProt B0MS50, R295A;H300A;R849A;H854A)
- T1 sequence: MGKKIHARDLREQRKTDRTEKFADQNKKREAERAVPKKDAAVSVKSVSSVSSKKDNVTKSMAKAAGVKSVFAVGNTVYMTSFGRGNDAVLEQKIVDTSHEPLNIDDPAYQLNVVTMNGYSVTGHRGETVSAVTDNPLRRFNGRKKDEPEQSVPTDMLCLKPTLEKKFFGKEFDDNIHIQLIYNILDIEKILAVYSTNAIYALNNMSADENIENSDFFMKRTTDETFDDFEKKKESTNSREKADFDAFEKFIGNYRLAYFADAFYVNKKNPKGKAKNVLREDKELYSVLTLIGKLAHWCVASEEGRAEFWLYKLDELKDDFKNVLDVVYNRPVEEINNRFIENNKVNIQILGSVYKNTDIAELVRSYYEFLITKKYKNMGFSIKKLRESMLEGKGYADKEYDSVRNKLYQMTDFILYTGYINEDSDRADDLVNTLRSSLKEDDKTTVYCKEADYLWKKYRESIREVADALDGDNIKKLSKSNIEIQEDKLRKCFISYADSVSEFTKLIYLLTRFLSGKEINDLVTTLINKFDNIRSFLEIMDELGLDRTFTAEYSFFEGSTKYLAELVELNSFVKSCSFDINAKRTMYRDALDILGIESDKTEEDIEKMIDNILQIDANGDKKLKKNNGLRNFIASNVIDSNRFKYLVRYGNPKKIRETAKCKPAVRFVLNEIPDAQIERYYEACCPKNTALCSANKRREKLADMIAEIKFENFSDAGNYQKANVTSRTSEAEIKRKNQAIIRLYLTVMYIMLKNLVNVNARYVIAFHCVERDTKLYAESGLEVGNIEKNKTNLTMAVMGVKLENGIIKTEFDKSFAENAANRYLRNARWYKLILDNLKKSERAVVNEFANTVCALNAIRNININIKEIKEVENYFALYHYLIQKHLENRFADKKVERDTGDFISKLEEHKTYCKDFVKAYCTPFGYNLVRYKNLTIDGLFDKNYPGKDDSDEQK
- protocol: crRNA (strand 1, pre-loaded); Mg2+; 40 mM Tris-HCl pH 7.5, 150 mM NaCl, 6 mM MgCl2, 1 mM DTT, 0.1% Tween-20, 0.2 mg/ml BSA; 25 C; 10 min per concentration, then washed
- conditionContext: tags: His6-TwinStrep-SUMO cleaved; N-terminal SNAP kept (SNAP-Surface 488); label: 3' end held by stalled T7 RNA polymerase
binders and their reported Kd
All answers are understood in nM, so give the number only.

Query: Quote Kd reported for target 1 insG 3' of 19,insA 3' of 3 (mixed) RNA 1: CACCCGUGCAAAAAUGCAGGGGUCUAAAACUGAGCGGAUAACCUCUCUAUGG RNA 2: GGGAAUGGAUCCACAUCUACGAAUUCGUACCAUGAGAGAGGUUAUCCGCUACACCGAGAUCGGAAGAGCACACGU please.
Result: 49
